Tested on: RAW264.7
Experiment: Antiinflammatory activity in mouse RAW264.7 cells assessed as reduction in LPS-induced IL-6 production pretreated for 1 hr followed by LPS stimulation and measured after 24 hrs by ELISA
Format: functional, cell-based
reported-metric: IC50
Kindly report the value followed by its unit.

Completed entries (count: 2):
sample-smiles: COc1ccc(/C=C/c2cc(OC)cc(OC)c2-c2oc3ccc(OC)cc3c(=O)c2O)cc1
IC50: 2370 nM
--
sample-smiles: COc1ccc(/C=C/c2cc(OC)cc(OC)c2-c2oc3ccc(Cl)cc3c(=O)c2O)cc1
IC50: 5060 nM

We next turn to a different compound, shown below.
Task: Which IC50 value belongs to `COc1ccc(/C=C/c2cc(OC)cc(OC)c2-c2oc3ccc(F)cc3c(=O)c2O)cc1` ?
Output: 1120 nM

Source listed as ChEMBL document CHEMBL4393700.
